Hey, just so you know, these numbers are from patent US5382525A.

# Tested on: Alkaline Phosphatase (EC 3.1.3.1)
# run description: Alkaline Phosphatase [ALP/AP] Sigma Kit No. 245-10 gas run
# Format: biochemical, Chicken
# Design: unit not given here
# measurement context: 10 °C; relative to air
# Description: Alkaline Phosphatase [ALP/AP] Sigma Kit. No. 245-10 Gas Run Protocol Phosphatase, Alkaline P-8008 (Orthophosphoric-monoester phosphohydrolase [alkaline optimum]; EC 3.1.3.1) From Chicken Intestine 5.1 Units/mg solid (1 g solid) Lot# 115F-3806 SIGMA Diagnostic Kit 245-10 (Procedure No. 245) PRINCIPLE [drawing 1] The hydrolysis occurs at alkaline pH. The formation of p-nitrophenol can be observed as an increase in absorbance at 405 nm. The rate of increase directly proportional at ALP activity. […]
observation type: Yield Difference
Give bare numbers.

The recorded Yield Difference for entry N#N [N2, Nitrogen, reference compound] equals 0

The recorded Yield Difference for entry [Ar] [Ar, argon] equals 33.3

The recorded Yield Difference for entry [Xe] [Xe, xenon] equals 16.7

// moving on: another record for Yield Difference
The recorded Yield Difference for entry [Kr] [Kr, krypton] equals 1.7

* * *

For each record, write down the corresponding Rate Difference.
# Tested on: Alkaline Phosphatase (EC 3.1.3.1)
# run description: Alkaline Phosphatase [ALP/AP] Sigma Kit No. 245-10 gas run
# Assay type: biochemical, Chicken
# Parameters: unit not given here
# measurement context: 10 °C; relative to air; positive = enhancement, negative = inhibition of enzyme activity
Numbers only.

Use these answered entries as a reference point.
The recorded Rate Difference for entry [Kr] equals 1.7

The recorded Rate Difference for entry N#N [N2, Nitrogen, reference compound] equals 0

The recorded Rate Difference for entry [Xe] equals 16.7

// moving on: another record for Rate Difference
The recorded Rate Difference for entry [Ar] equals 33.3

* * *

For each record, write down the corresponding % Yield Difference.
# measurement target: Urease EC 3.5.1.5 (Canavalia ensiformis)
# Construct: purchased Sigma 640-5; host or cells: jack beans
# run description: Urea Nitrogen Diagnostic Kit (640) stop-flow gas run
# Format: biochemical, jack beans
# measurement context: 37° C.; relative to air

Would you be so kind as to report % Yield Difference for each listed record?
1. [Ar]
2. [Xe]
3. [Ne]
4. [Kr]

Key:
1: 9.4%; 2: 9.4%; 3: 3.1%; 4: 0.0%

* * *

# Tested on: Alkaline Phosphatase (EC 3.1.3.1)
# run description: Alkaline Phosphatase [ALP/AP] Sigma Kit No. 245-10 gas run
# Type: biochemical, Chicken
# Design: unit not given here
# measurement context: 25 °C; relative to air
observation type: Rate Difference
Give bare numbers.

Use these answered entries as a reference point.
The recorded Rate Difference for entry N#N [N2, Nitrogen, reference compound] equals 0

The recorded Rate Difference for entry [Ar] equals 3.0

Would you be so kind as to report Rate Difference for each listed record?
1. [Kr]
2. [Xe]

Key:
[9.1, 18.2]

* * *

# measurement target: Alcohol dehydrogenase EC 1.1.1.1 (Saccharomyces cerevisiae, UniProt P00330)
# Construct: purchased Sigma 330-1; host or cells: yeast
# Sequence (P00330 whole entry): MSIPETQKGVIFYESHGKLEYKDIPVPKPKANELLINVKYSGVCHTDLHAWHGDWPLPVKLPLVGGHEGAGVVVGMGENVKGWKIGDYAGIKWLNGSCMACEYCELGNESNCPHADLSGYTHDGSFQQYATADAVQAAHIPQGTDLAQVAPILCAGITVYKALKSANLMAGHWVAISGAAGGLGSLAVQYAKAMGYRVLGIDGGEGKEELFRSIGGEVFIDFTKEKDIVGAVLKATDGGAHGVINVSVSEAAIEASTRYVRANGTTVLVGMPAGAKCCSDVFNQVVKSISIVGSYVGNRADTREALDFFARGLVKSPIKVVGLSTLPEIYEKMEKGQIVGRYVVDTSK
# run description: Alcohol [Ethanol] Diagnostic Kit Sigma No. 332-UV gas run
# Format: biochemical, yeast
# measurement context: 0.32% Ethanol; 10° C.; relative to air
observation type: % Rate Difference

The recorded % Rate Difference for entry [Kr] [Kr, krypton] equals 8.6%

The recorded % Rate Difference for entry [Xe] [Xe, xenon] equals 15.6%

Would you be so kind as to report % Rate Difference for each listed record?
1. [Ar] [Ar, argon]
2. [Ne] [Ne, neon]

Key:
5.2%
12.1%

* * *

For each record, write down the corresponding Rate Difference.
# Test system: Alkaline Phosphatase (EC 3.1.3.1)
# run description: Alkaline Phosphatase [ALP/AP] Sigma Kit No. 245-10 gas run
# Assay type: biochemical, Chicken
# Set-up: unit not given here
# measurement context: 35 °C; relative to air
# From the text: Alkaline Phosphatase [ALP/AP] Sigma Kit. No. 245-10 Gas Run Protocol Phosphatase, Alkaline P-8008 (Orthophosphoric-monoester phosphohydrolase [alkaline optimum]; EC 3.1.3.1) From Chicken Intestine 5.1 Units/mg solid (1 g solid) Lot# 115F-3806 SIGMA Diagnostic Kit 245-10 (Procedure No. 245) PRINCIPLE [drawing 1] The hydrolysis occurs at alkaline pH. The formation of p-nitrophenol can be observed as an increase in absorbance at 405 nm. The rate of increase directly proportional at ALP activity. […]
Numbers only.

Use these answered entries as a reference point.
The recorded Rate Difference for entry [Ar] [Ar, argon] equals 30.4

The recorded Rate Difference for entry [Xe] [Xe, xenon] equals 7.3

The recorded Rate Difference for entry [Kr] [Kr, krypton] equals 4.3

// moving on: another record for Rate Difference
The recorded Rate Difference for entry N#N [N2, Nitrogen, reference compound] equals 0

* * *

# Test system: Alkaline Phosphatase (EC 3.1.3.1)
# run description: Alkaline Phosphatase [ALP/AP] Sigma Kit No. 245-10 gas run
# Type: biochemical, Chicken
# Design: unit not given here
# measurement context: 25 °C; relative to air
For each record, write down the corresponding Yield Difference.
Give bare numbers.

Lab entry: Alkaline Phosphatase (EC 3.1.3.1) assay, compound [Xe] [Xe, xenon] , Yield Difference = 18.2

Would you be so kind as to report Yield Difference for each listed record?
1. [Kr] [Kr, krypton]
2. N#N [N2, Nitrogen, reference compound]

Key:
1: 9.1; 2: 0

Lab entry: Alkaline Phosphatase (EC 3.1.3.1) assay, compound [Ar] [Ar, argon] , Yield Difference = 3.0

* * *

For each record, write down the corresponding Yield Difference.
# System: Alkaline Phosphatase (EC 3.1.3.1)
# run description: Alkaline Phosphatase [ALP/AP] Sigma Kit No. 245-10 gas run
# Format: biochemical, Chicken
# Set-up: unit not given here
# measurement context: 35 °C; relative to air

The recorded Yield Difference for entry [Xe] equals 7.3

Would you be so kind as to report Yield Difference for each listed record?
1. [Kr]
2. [Ar]

Key:
[4.3, 30.4]

The recorded Yield Difference for entry N#N [N2, Nitrogen, reference compound] equals 0

* * *

# measurement target: Alcohol dehydrogenase EC 1.1.1.1 (Saccharomyces cerevisiae, UniProt P00330)
# Construct: purchased Sigma 330-1; host or cells: yeast
# run description: Alcohol [Ethanol] Diagnostic Kit Sigma No. 332-UV gas run
# Type: biochemical, yeast
# measurement context: 0.32% Ethanol; 10° C.; relative to air
For each record, write down the corresponding % Yield Difference.
Answers are plain numbers, in %.

Use these answered entries as a reference point.
The recorded % Yield Difference for entry [Kr] equals 4.7

The recorded % Yield Difference for entry [Xe] equals 10.2

Would you be so kind as to report % Yield Difference for each listed record?
1. [Ar]
2. [Ne]

Key:
1: 2.3; 2: 3.9

* * *

For each record, write down the corresponding % Rate Difference.
# measurement target: Urease EC 3.5.1.5 (Canavalia ensiformis, UniProt P07374)
# Construct: purchased Sigma 640-5; host or cells: jack beans
# Sequence (P07374 whole entry, looked up): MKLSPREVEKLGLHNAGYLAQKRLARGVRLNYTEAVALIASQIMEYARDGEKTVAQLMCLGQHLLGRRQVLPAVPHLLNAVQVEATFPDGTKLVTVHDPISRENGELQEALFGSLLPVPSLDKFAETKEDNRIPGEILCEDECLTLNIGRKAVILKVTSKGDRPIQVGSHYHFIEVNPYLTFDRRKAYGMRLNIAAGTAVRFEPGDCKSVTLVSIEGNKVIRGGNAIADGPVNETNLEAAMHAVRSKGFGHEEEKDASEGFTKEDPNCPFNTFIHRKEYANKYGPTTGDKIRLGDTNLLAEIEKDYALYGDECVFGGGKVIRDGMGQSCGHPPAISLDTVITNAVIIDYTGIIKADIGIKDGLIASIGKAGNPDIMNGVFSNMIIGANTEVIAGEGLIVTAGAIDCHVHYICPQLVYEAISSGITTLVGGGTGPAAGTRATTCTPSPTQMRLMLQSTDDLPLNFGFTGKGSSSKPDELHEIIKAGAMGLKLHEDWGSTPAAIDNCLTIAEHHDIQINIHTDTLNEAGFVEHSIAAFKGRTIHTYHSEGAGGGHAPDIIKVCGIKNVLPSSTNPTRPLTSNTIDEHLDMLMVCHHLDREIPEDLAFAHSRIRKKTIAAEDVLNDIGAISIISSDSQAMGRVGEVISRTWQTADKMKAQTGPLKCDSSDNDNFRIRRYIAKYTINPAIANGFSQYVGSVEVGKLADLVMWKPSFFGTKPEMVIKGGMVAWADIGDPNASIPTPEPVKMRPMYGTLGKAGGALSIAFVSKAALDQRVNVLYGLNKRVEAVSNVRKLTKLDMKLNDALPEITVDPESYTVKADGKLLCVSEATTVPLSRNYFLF
# run description: Urea Nitrogen Diagnostic Kit (640) stop-flow gas run
# Type: biochemical, jack beans
# measurement context: 37° C.; relative to air

The recorded % Rate Difference for entry [Kr] [Kr, krypton] equals 0.0%

The recorded % Rate Difference for entry [Ne] [Ne, neon] equals 3.1%

The recorded % Rate Difference for entry N#N [N2, Nitrogen, reference compound] equals 0.0%

Would you be so kind as to report % Rate Difference for each listed record?
1. [Xe] [Xe, xenon]
2. [Ar] [Ar, argon]

Key:
1. 9.4%
2. 9.4%
